Tested on: wild oat (Avena fatua)
assay summary: Test B pre-/postemergence plant response
Type: in vivo
condition: Postemergence, 125 g ai/ha; scale 0 to 100 (0 no effect, 100 complete control)
readout: Plant response rating, Oat, Wild
Response field accepts a number only; no unit should be typed.

*Q* State its Plant response rating, Oat, Wild on wild oat (Avena fatua): COCCCn1c(-c2cc(F)cc(F)c2)ncc(C(=O)C2=C(O)CCCC2=O)c1=O [Compound 120]
*A* 80

*Q* Return Plant response rating, Oat, Wild measured with wild oat (Avena fatua) given this compound: O=C1CCCC(O)=C1C(=O)c1cnc(-c2ccccc2)n(C2CCCC2)c1=O [Compound 131]
*A* 0

*Q* // map Cc1ccc(Cl)cc1-n1c(-c2cccc(F)c2)ncc(C(=O)C2=C(O)CCCC2=O)c1=O [Compound 184] to recorded Plant response rating, Oat, Wild (system: wild oat (Avena fatua))
*A* 80

*Q* Notebook entry, wild oat (Avena fatua) assay: Plant response rating, Oat, Wild of COCC(C)n1c(-c2ccccc2)ncc(C(=O)C2=C(O)CCCC2=O)c1=O (stereo not shown) [Compound 107] = ?
*A* 20

====

System: goosegrass (Eleusine indica)
assay summary: Test B pre-/postemergence plant response
Type: in vivo
condition: Preemergence, 31 g ai/ha; scale 0 to 100 (0 no effect, 100 complete control)
The following molecules are listed with their measured Plant response rating, Goosegrass values.
Kindly provide the number alone.

// worked examples, Plant response rating, Goosegrass included
Cc1ccccc1-n1c(-c2ccccc2)ncc(C(=O)C2=C(O)CCCC2=O)c1=O :: 85
COCCn1c(-c2cc(F)cc(F)c2)ncc(C(=O)C2=C(O)CCCC2=O)c1=O :: 100
O=C1CCCC(O)=C1C(=O)c1cnc(-c2ccccc2)n(-c2cccc(Br)c2)c1=O :: 95

*Q* Recorded Plant response rating, Goosegrass for "Cc1c(Cl)cccc1-n1c(-c2ccccc2)ncc(C(=O)C2=C(O)CCCC2=O)c1=O" , please?
*A* 80

*Q* I have this molecule here, CCCc1ncc(C(=O)C2=C(O)CCCC2=O)c(=O)n1CC1CCCO1 (stereo not drawn) , and I need its recorded Plant response rating, Goosegrass.
*A* 98

*Q* What value of Plant response rating, Goosegrass has been reported for the following molecule? O=C1CCCC(O)=C1C(=O)c1cnc(-c2ccccc2)n(CC2CCCO2)c1=O (stereo not drawn)
*A* 98

====

Test system: woolly cupgrass (Eriochloa villosa)
assay summary: Test B pre-/postemergence plant response
Format: in vivo
condition: Postemergence, 62 g ai/ha; scale 0 (no effect) to 100 (complete control); 13 to 15 days
Measured Plant response rating, Cupgrass, Woolly by item
Reply with the value as a number alone.

Cc1cc(-n2c(-c3ccccc3)ncc(C(=O)C3=C(O)CCCC3=O)c2=O)ccc1F :: 90

*Q* Name the recorded Plant response rating, Cupgrass, Woolly for "CCCCc1ncc(C(=O)C2=C(O)CCCC2=O)c(=O)n1-c1ccccc1" .
*A* 20

*Q* Given the entry "Cc1ccc(F)cc1-n1c(-c2ccccc2)ncc(C(=O)C2=C(O)CCCC2=O)c1=O" , report its measured Plant response rating, Cupgrass, Woolly.
*A* 80

*Q* Please give the measured Plant response rating, Cupgrass, Woolly for this compound: "Cc1cccc(Cl)c1-n1c(-c2ccccc2)ncc(C(=O)C2=C(O)CCCC2=O)c1=O"
*A* 20

*Q* Reported Plant response rating, Cupgrass, Woolly, compound "Cc1ccc(-n2c(-c3ccccc3)ncc(C(=O)C3=C(O)CCCC3=O)c2=O)cc1" : ____
*A* 80
